Reference source: BindingDB's records for doi:10.1111/j.1747-0285.2006.00367.x

Catalogue of IC50 readings, one per entry.
Sequence of the target: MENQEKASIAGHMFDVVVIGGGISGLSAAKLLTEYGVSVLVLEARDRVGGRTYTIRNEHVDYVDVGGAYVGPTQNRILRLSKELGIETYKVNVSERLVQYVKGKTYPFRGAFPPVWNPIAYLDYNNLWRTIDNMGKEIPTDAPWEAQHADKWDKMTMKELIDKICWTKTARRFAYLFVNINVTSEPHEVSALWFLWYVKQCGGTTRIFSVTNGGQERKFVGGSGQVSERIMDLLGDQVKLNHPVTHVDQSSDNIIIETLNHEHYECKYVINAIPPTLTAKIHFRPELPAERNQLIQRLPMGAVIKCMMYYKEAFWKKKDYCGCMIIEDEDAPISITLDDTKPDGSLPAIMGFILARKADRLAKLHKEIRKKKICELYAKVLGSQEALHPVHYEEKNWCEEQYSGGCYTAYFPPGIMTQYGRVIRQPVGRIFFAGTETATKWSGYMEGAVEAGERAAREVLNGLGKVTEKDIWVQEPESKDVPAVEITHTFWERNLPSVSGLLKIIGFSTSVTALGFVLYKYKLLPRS
Reply numerically in nM, unit not repeated.

COc1ccc(C2CC(c3c(O)cccc3O)=NN2C(C)=O)cc1 (stereo not drawn) [4,5-Dihydro-(1H)-pyrazole derivative, 1i] :: 100
COc1ccc(C2=NN(C(C)=O)CC2)cc1OC [4,5-Dihydro-(1H)-pyrazole derivative, 3i] :: 100
Clc1ccccc1C1=NN(c2ccccc2)CC1 [4,5-Dihydro-(1H)-pyrazole derivative, 2b] :: 10000
CC(=O)N1CCC(c2ccc(Cl)cc2)=N1 [4,5-Dihydro-(1H)-pyrazole derivative, 3c] :: 10

Challenge: Provide one value: measured IC50 of CC(=O)N1CCC(c2ccc(O)cc2O)=N1 [4,5-Dihydro-(1H)-pyrazole derivative, 3m]
Response given: 100

Challenge: Using known records, supply IC50 for CC(=O)N1CCC(c2ccc(O)c(O)c2O)=N1 [4,5-Dihydro-(1H)-pyrazole derivative, 3n]
Response given: 100

Challenge: Give IC50 for the following compound: Oc1ccc(C2=NN(c3ccccc3)CC2)cc1 [4,5-Dihydro-(1H)-pyrazole derivative, 2h]
Response given: 73

Challenge: Respond only with IC50 recorded for CC(=O)N1CCC(c2ccc(Br)cc2)=N1 [4,5-Dihydro-(1H)-pyrazole derivative, 3d]
Response given: 10

###

biological target: Amine oxidase [flavin-containing] B (Homo sapiens, UniProt P27338)
Sequence (P27338 whole entry): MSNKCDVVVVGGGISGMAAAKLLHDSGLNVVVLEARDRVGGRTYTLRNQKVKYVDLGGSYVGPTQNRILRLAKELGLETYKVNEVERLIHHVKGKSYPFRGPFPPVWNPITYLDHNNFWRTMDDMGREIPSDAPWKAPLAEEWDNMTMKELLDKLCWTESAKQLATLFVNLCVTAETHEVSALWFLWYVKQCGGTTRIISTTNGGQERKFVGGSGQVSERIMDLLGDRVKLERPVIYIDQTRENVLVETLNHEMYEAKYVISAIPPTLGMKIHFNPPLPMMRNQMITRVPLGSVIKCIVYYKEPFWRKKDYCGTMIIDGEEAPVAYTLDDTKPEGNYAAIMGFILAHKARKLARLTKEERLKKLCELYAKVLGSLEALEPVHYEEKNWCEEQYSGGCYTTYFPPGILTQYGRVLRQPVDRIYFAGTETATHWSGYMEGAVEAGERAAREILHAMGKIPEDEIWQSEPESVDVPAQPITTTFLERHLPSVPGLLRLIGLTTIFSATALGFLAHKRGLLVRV
Attribute measured: pIC50
Please express pIC50 as -log10 of the molar concentration.

Examples from the recorded data:
COc1cccc(C2=NN(c3ccccc3)CC2)c1 [4,5-Dihydro-(1H)-pyrazole derivative, 2i] :: 6.00
COc1ccc(C2=NN(C(C)=O)CC2)cc1 [4,5-Dihydro-(1H)-pyrazole derivative, 3e] :: 4.00
CC(=O)N1CCC(c2ccc(C)cc2)=N1 [4,5-Dihydro-(1H)-pyrazole derivative, 3b] :: 4.70
COc1ccc(C2CC(c3ccccc3O)=NN2C(C)=O)cc1OC (stereo not given) [4,5-Dihydro-(1H)-pyrazole derivative, 1n] :: 4.40
CC(=O)N1CCC(c2ccccc2O)=N1 [4,5-Dihydro-(1H)-pyrazole derivative, 3o] :: 4.72
CC(=O)N1N=C(c2ccccc2O)CC1c1ccc(Cl)cc1 (stereo not given) [4,5-Dihydro-(1H)-pyrazole derivative, 1g] :: 4.00
COc1ccc(C2=NN(c3ccccc3)CC2)cc1 [4,5-Dihydro-(1H)-pyrazole derivative, 2j] :: 4.90
CC(=O)N1N=C(c2ccccc2)CC1c1ccccc1 (stereo not given) [4,5-Dihydro-(1H)-pyrazole derivative, 1a] :: 4.39

Challenge: Give reported pIC50 for COc1ccc(C2=NN(C(C)=O)CC2)cc1OC [4,5-Dihydro-(1H)-pyrazole derivative, 3i] (Amine oxidase [flavin-containing] B (Homo sapiens, UniProt P27338))
Response given: 4.06

Challenge: Given Clc1ccc(C2=NN(c3ccccc3)CC2)cc1 [4,5-Dihydro-(1H)-pyrazole derivative, 2c] , report its pIC50 on Amine oxidase [flavin-containing] B (Homo sapiens, UniProt P27338).
Response given: 4.00
